# Condition Notes: in acetone, 313.15 K
Parameter: solubility (mole fraction)
Answer using only a numeral; do not append any unit.

Data request, read-out solubility (mole fraction), for `Cc1c(C(=O)O)cccc1[N+](=O)[O-]`
0.0777

---

# Condition Notes: in methanol, 303.15 K
Parameter: solubility (mole fraction)
The response must contain the number and no unit.

I am curious: what solubility (mole fraction) value has been reported for `Cc1c(C(=O)O)cccc1[N+](=O)[O-]` ?
0.0392

---

# Condition Notes: in 2-butanone, 303.15 K
Parameter: solubility (mole fraction)
Respond using a number only.

What value of solubility (mole fraction) has been recorded for this entry: `Cc1c(C(=O)O)cccc1[N+](=O)[O-]`
0.0664

---

# Condition Notes: in acetonitrile, 313.15 K
Parameter: solubility (mole fraction)
// keep it numeric: no unit symbol after the value

Need solubility (mole fraction), item `Cc1c(C(=O)O)cccc1[N+](=O)[O-]`
0.0211

---

# Condition Notes: in acetone, 288.15 K
Parameter: solubility (mole fraction)
The reply should be a number, written without any unit.

Look up solubility (mole fraction): `Cc1c(C(=O)O)cccc1[N+](=O)[O-]`
0.0627

---

# Condition Notes: in 2-butanone, 305.65 K
Parameter: solubility (mole fraction)
Lab note: write the figure by itself, no unit.

State the recorded solubility (mole fraction) for this entry: `Cc1c(C(=O)O)cccc1[N+](=O)[O-]`
0.0683

---

# Condition Notes: in n-propanol, 313.15 K
Parameter: solubility (mole fraction)
Enter the number alone.

Would you mind telling me what solubility (mole fraction) value was observed for `Cc1c(C(=O)O)cccc1[N+](=O)[O-]` ?
0.0455

---

# Condition Notes: in 1,4-dioxane, 318.15 K
Parameter: solubility (mole fraction)
I only need the number, thanks.

Look up solubility (mole fraction): `Cc1c(C(=O)O)cccc1[N+](=O)[O-]`
0.0921

---

# Condition Notes: in n-propanol, 298.15 K
Parameter: solubility (mole fraction)
Enter the number alone.

Quick one: solubility (mole fraction) of `Cc1c(C(=O)O)cccc1[N+](=O)[O-]` ?
0.0231

---

# Condition Notes: in isopropanol, 293.15 K
Parameter: solubility (mole fraction)
Form field (numeric): enter value without unit.

What value of solubility (mole fraction) has been reported for the following compound? `Cc1c(C(=O)O)cccc1[N+](=O)[O-]`
0.0206

---

# Condition Notes: in 2-butanone, 283.15 K
Parameter: solubility (mole fraction)

Dear colleague, I am looking for the recorded solubility (mole fraction) of the following compound: `Cc1c(C(=O)O)cccc1[N+](=O)[O-]`
0.0528

---

# Condition Notes: in ethyl acetate, 288.15 K
Parameter: solubility (mole fraction)
Respond using a number only.

Please give the measured solubility (mole fraction) for this molecule: `Cc1c(C(=O)O)cccc1[N+](=O)[O-]`
0.0341

---

# Condition Notes: in acetone, 295.65 K
Parameter: solubility (mole fraction)
Just the number, please, no unit after it.

Can you share its solubility (mole fraction)? I mean this molecule: `Cc1c(C(=O)O)cccc1[N+](=O)[O-]`
0.0668

---

# Condition Notes: in 2-butanone, 295.65 K
Parameter: solubility (mole fraction)
# respond with the number and nothing more

Return reported solubility (mole fraction); argument: `Cc1c(C(=O)O)cccc1[N+](=O)[O-]`
0.0609

---

# Condition Notes: in 1,4-dioxane, 310.65 K
Parameter: solubility (mole fraction)
Answer with the value's number alone.

Entry under review: `Cc1c(C(=O)O)cccc1[N+](=O)[O-]` . Reported solubility (mole fraction)?
0.0865
